All figures here come from the supplement of paper PMC12338614.

# STK11 functional score annotations
B1: library; numbered along this chain (parent)
chain: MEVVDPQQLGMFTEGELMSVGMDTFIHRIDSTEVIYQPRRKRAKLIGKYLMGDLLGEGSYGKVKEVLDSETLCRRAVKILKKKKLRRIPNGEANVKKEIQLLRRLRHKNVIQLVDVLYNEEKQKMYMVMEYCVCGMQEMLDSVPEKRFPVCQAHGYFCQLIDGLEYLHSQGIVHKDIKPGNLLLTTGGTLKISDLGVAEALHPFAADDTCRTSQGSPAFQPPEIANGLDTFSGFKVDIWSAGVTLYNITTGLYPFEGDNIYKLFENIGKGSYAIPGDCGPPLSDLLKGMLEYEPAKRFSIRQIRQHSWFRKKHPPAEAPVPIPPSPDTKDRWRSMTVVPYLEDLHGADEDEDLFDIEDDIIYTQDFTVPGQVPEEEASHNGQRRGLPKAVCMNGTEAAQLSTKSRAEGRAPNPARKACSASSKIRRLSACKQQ

- Variants of: B1
- ASSAY_COMMENT: STK11 functional score (HeLa growth suppression), rescaled enrichment; synonymous median = 1, nonsense median = 0 (normalised score)
- RUN_CONDITIONS: with HeLa; variant type: missense

- MUTATION_NAME: "G346E"
  STK11 functional score: 1.35
- MUTATION_NAME: "Q371Y"
  STK11 functional score: 1.04
- MUTATION_NAME: "H168E"
  STK11 functional score: 1.3
- MUTATION_NAME: "S283L"
  STK11 functional score: 0.985
- MUTATION_NAME: "A414I"
  STK11 functional score: 1.33
- MUTATION_NAME: "L17Q"
  STK11 functional score: 1.71
- MUTATION_NAME: "G279I"
  STK11 functional score: 1.41
- MUTATION_NAME: "V338A"
  STK11 functional score: 1.56
- MUTATION_NAME: "T212S"
  STK11 functional score: 0.909
- MUTATION_NAME: "G233Q"
  STK11 functional score: 1.62
- MUTATION_NAME: "L50V"
  STK11 functional score: 0.846
- MUTATION_NAME: "A398M"
  STK11 functional score: 1.63
- MUTATION_NAME: "A397K"
  STK11 functional score: 0.947
- MUTATION_NAME: "E357F"
  STK11 functional score: 0.965
